Taken from PubChem BioAssay (NCI).

assay: NCI Yeast Anticancer Drug Screen. Data for the sgs1 mgt1 strain (AID 161);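 further: 0% = growth of cultures given vehicle only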; conditions: S. cerevisiae sgs1 mgt1 strain, at 50.0 µM, stronger effect = higher value
This is part of a sample that, as a whole, favours compounds with a hit. Of some 79,000 tested, about 15% had one in any assay.
Would you please tag the item rule met when its growth inhibition is 80% or above, and rule not met when it is below?

Some solved cases for reference:
Is reported growth inhibition greater than or equal to 80% here: CCCCN(CCCC)CC(C(C)=O)C(c1ccccc1)c1c(O)c2ccccc2oc1=O (stereo not given)
rule met

Is reported growth inhibition greater than or equal to 80% here: CC(=O)OC1C(=O)OCC23CCC4(C)OC4C2OC2CC(OC(=O)/C=C/C=C/C(=O)OCCC1C)C3(C)C21CO1 (stereo not given)
rule met

Is reported growth inhibition greater than or equal to 80% here: CC[CH2][Sn]([F])([F])[CH2]CC
rule met

Is reported growth inhibition greater than or equal to 80% here: [Br][Sn]([CH]1CCCCC1)([CH]1CCCCC1)[CH]1CCCCC1
rule met

Is reported growth inhibition greater than or equal to 80% here: c1ccc2c(c1)c1cccc3c4c5ccccc5c5cccc(c2c13)c54
rule not met

Is reported growth inhibition greater than or equal to 80% here: CCN(CC)CC(=O)c1ccc2c(ccc3ccccc32)c1
rule met

Is reported growth inhibition greater than or equal to 80% here: N#C[S-].[Nd+3].c1ccc(-c2ccccn2)nc1.c1ccc(-c2ccccn2)nc1.c1ccc(-c2ccccn2)nc1
rule met

Is reported growth inhibition greater than or equal to 80% here: COC(=O)C(CCCN=C(N)N[N+](=O)[O-])NC(=O)c1ccc2c(c1O)C(=O)c1ccccc1C2=O (stereo not given)
rule not met

Further cases:
Is reported growth inhibition greater than or equal to 80% here: O=c1[nH]cnc2[nH]cc(CN3CCCCC3)c12
rule not met

Is reported growth inhibition greater than or equal to 80% here: Clc1c(CI)ccc(CI)c1Cl
rule met

====

assay: NCI Yeast Anticancer Drug Screen. Data for the bub3 strain (AID 167); details: S. cerevisiae bub3 mutant strain, at 50.0 µM, stronger effect = higher value
This is part of a sample that, as a whole, favours compounds with a hit. Of some 79,000 tested, about 15% had one in any assay.
A collection of compounds and their measured growth inhibition
Note: unit % is implicit; provide only the numeric part.

Below: 5 compounds and their reported growth inhibition.
Consider the compound COC1=CC2=CCC3C(CCC4(C)C3CCC4(C)OC(C)=O)C2(C)CC1 (stereo not given) and give its measured growth inhibition.
76.6

Consider the compound CS(=O)(=O)OCCN(CCOS(C)(=O)=O)c1ccc(C=O)cc1 and give its measured growth inhibition.
73.2

Consider the compound Fc1cccc(C2N(Cc3ccc(N(CCCl)CCCl)cc3Cl)CCCN2Cc2ccc(N(CCCl)CCCl)cc2Cl)c1 and give its measured growth inhibition.
83.2

Consider the compound CCC[CH2][Sn]([F])([CH2]CCC)[O][Sn]([F])([CH2]CCC)[CH2]CCC and give its measured growth inhibition.
98.5

Consider the compound CC(=O)OC1C(=O)OCC23CCC4(C)OC4C2OC2CC(OC(=O)/C=C/C=C/C(=O)OCCC1C)C3(C)C21CO1 (stereo not given) and give its measured growth inhibition.
92.6

Further cases:
Consider the compound Cc1cc(N(CCCl)CCCl)ccc1CN1CCCN(Cc2ccc(N(CCCl)CCCl)cc2C)C1c1cccc(F)c1 and give its measured growth inhibition.
2.15

Consider the compound CCCCC(CC)CNP(=S)(NCC(CC)CCCC)NCC(CC)CCCC (stereo not given) and give its measured growth inhibition.
13.4

Consider the compound [Br][Hg][CH2]COC[CH2][Hg][Br] and give its measured growth inhibition.
99

Consider the compound CCCN(CCC)c1c([N+](=O)[O-])cc(S(N)(=O)=O)cc1[N+](=O)[O-] and give its measured growth inhibition.
89.5

Consider the compound CCCCCCCC1(c2ccc(N)cc2)CCC(=O)NC1=O (stereo not given) and give its measured growth inhibition.
56

Consider the compound CC(=O)O.CC(=O)[O-].CC(=O)[O-].[Co+3].[NH-]CC[NH-].[NH-]CC[NH-] and give its measured growth inhibition.
-1.65

Consider the compound CC(=O)C(Br)C(C)=O.CC(=O)C(Br)C(C)=O.CC(=O)C(Br)C(C)=O.[Rh] and give its measured growth inhibition.
99.4

====

A collection of compounds and their measured growth inhibition
assay: NCI Yeast Anticancer Drug Screen. Data for the mec2-1 strain (AID 157); details: S. cerevisiae mec2-1 strain, at 5.0 µM (retest, dose inferred, filed as 0.5), stronger effect = higher value
The panel holds about 79,000 compounds, 15% with a hit somewhere; the sample as a whole holds those more often. Active and inactive are the calls of the source. Rule as the data show it: active = growth inhibition above about 70%; inactive = the rest.

Below: 5 compounds and their reported growth inhibition.
Consider the compound N#C[S-].[Nd+3].c1cnc2c(c1)ccc1cccnc12.c1cnc2c(c1)ccc1cccnc12.c1cnc2c(c1)ccc1cccnc12 and give its measured growth inhibition.
98% (active)

Consider the compound CCC(C)N1CN(c2ccccc2)C2(CCN(CC3COc4ccccc4O3)CC2)C1=O (stereo unspecified) and give its measured growth inhibition.
-5% (inactive)

Consider the compound N=C(N)c1ccccc1 and give its measured growth inhibition.
-1% (inactive)

Consider the compound C[C@]12CCC3[C@@H](CC[C@@H]4c5nonc5CC[C@]34C)C1CCC2=O (stereo partly specified) and give its measured growth inhibition.
15% (inactive)

Consider the compound CC(=O)Nc1ccccc1[As](O[As](c1ccccc1)c1ccccc1NC(C)=O)c1ccccc1 (stereo unspecified) and give its measured growth inhibition.
24% (inactive)

# context switch: different compound, same growth inhibition
Consider the compound CN(CCO)CCO and give its measured growth inhibition.
3% (inactive)

====

test: NCI Yeast Anticancer Drug Screen. Data for the rad14 strain (AID 159);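 further: 0% = growth of vehicle-treated control cultures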; details: S. cerevisiae rad14 strain growth inhibition; at 1.2 µM; stronger effect = higher value
The panel holds about 79,000 compounds, 15% with a hit somewhere; the sample as a whole holds those more often.
Reported Metric: growth inhibition (%)
Note: unit % is implicit; provide only the numeric part.

Below: 5 molecules and their reported growth inhibition.
Consider the molecule CC1(Cl)CC(C)(/C=C/Cl)C(Cl)CC1Cl (stereo not given) and give its measured growth inhibition.
4

Consider the molecule CNCC(O)c1ccc(O)c(O)c1.[Pt].c1ccc([PH+](c2ccccc2)c2ccccc2)cc1.c1ccc([PH+](c2ccccc2)c2ccccc2)cc1 and give its measured growth inhibition.
-1

Consider the molecule CC1(C)N=C(N)N=C(N)N1c1cccc(N)c1.[Sn] and give its measured growth inhibition.
5

Consider the molecule Cn1cnc(N)c1C(=N)[Se] and give its measured growth inhibition.
9

Consider the molecule CC[C@@]1(O)C(=O)OCc2c1cc1n(c2=O)Cc2cc3c(NC(=O)CN)cccc3nc2-1 and give its measured growth inhibition.
2

# context switch: different molecule, same growth inhibition
Consider the molecule O=c1oc2ccccc2c(O)c1C(c1ccc2ccccc2c1)c1c(O)c2ccccc2oc1=O and give its measured growth inhibition.
12

====

assay: NCI Yeast Anticancer Drug Screen. Data for the mgt1 strain (AID 153); settings: S. cerevisiae mgt1 mutant growth inhibition; at 33.0 µM; stronger effect = higher value
About 79,000 compounds went through this panel and 15% of them were active in at least one assay; those are over-represented in the sample as a whole.
Reported Metric: growth inhibition (%)
Note: unit % is implicit; provide only the numeric part.

Consider the molecule COC(=O)C1C2c3ccccc3C(c3ccccc32)C1C(=O)OC (configuration not stated) and give its measured growth inhibition.
2

# context switch: different molecule, same growth inhibition
Consider the molecule Cc1ccc2c(c1)C1(C)c3cc(C)ccc3SP1S2 (configuration not stated) and give its measured growth inhibition.
37

====

Assay: NCI Yeast Anticancer Drug Screen. Data for the cln2 rad14 strain (AID 165);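 further: 0% = growth equal to vehicle treated cultures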
Settings: S. cerevisiae cln2 rad14 strain, at 5.0 µM (retest, dose inferred, filed as 0.5), stronger effect = higher value
Experimental: Growth inhibition of yeast strains with defined genetic alterations is measured as a screen for potential anti-cancer activity. Selected strains with alterations in DNA damage repair or cell cycle control were exposed to compounds and growth inhibition was measured relative to vehicle treated controls. The strain used in this assay is cln2 rad14
About 79,000 compounds went through this panel and 15% of them were active in at least one assay; those are over-represented in the sample as a whole.
A collection of compounds and their measured growth inhibition
Note: unit % is implicit; provide only the numeric part.

Below: 8 compounds and their reported growth inhibition.
Consider the compound [Br][Hg][CH2]COC[CH2][Hg][Br] and give its measured growth inhibition.
83

Consider the compound C[Si]1(C)CCCCC2(C1)C(=O)NC(=O)NC2=O and give its measured growth inhibition.
-3

Consider the compound COC(=O)C1=C(C(=O)OC)C2OC1c1cc3ccccc3cc12 and give its measured growth inhibition.
16

Consider the compound COc1cc(O)c2c(O)c3c(c4c2c1[C@]1(C4)C(C)=CCCC1(C)C)[C@H](O)[C@@]1(O)CC(=O)C(C(N)=O)=C(O)[C@@]1(O)C3=O and give its measured growth inhibition.
1

Consider the compound N#CC(=C=N)N=C(F)C(C#N)=C(C#N)C#N and give its measured growth inhibition.
7

Consider the compound CSC(=Nc1ccccc1)N(c1ccccc1)c1nc(=[N+](C)C)ss1 and give its measured growth inhibition.
-1

Consider the compound CC(=O)O.[Au].c1ccc([PH+](c2ccccc2)c2ccccc2)cc1 and give its measured growth inhibition.
99

Consider the compound CC12CCC(O)CC1CCC1C2CCC2(C)C(C(=O)CC(O)C(F)(F)F)CCC12 (stereo unspecified) and give its measured growth inhibition.
-7

Further cases:
Consider the compound Oc1ccc(Br)cc1C1N(Cc2ccc(N(CCCl)CCCl)cc2Cl)CCCN1Cc1ccc(N(CCCl)CCCl)cc1Cl and give its measured growth inhibition.
70

Consider the compound O=C(O)CCCc1cc(I)c(N(CCCl)CCCl)c(I)c1 and give its measured growth inhibition.
45
